System: SW-620 colon
Test: NCI-60 one-dose screen, 48 h (100 = growth as untreated, 0 = no growth, -100 = all killed)
Details: 10 µM unless noted
About 83,000 compounds went through this panel and 20% of them were active in at least one assay; those are over-represented in the sample as a whole.
Each entry gets label 0 if its growth stays under 40%, and label 1 if its growth is 40% or above.

Example entries and their recorded answers appear below.
[[record]]
compound = "CC(=O)C(C(C)=O)C(c1ccccc1)C(C(C)=O)C(C)=O"
target_of_assay = "SW-620 colon"
class_label = "label 1"

[[record]]
compound = "O=C1CC(c2ccc3c(c2)OCO3)c2ncn(-c3ccc(Cl)cc3)c2N1 (centres undefined)"
target_of_assay = "SW-620 colon"
class_label = "label 0"

[[record]]
compound = "C=CC(=O)N(C)[C@H]1C[C@H]2OC(C)(C1OC)n1c3ccccc3c3c4c(c5c6ccccc6n2c5c31)C(=O)NC4 (some centres undefined)"
target_of_assay = "SW-620 colon"
class_label = "label 0"


Given the entry `CC(=O)Nc1cccc(-n2c(=O)n(C3CC3)c(=O)c3c(Nc4ccc(I)cc4F)n(C)c(=O)c(C)c32)c1` , answer whether its growth meets or surpasses 40%. label 0

Given `CO[C@H]1C[C@@H]2CC[C@@H](C)[C@@](O)(O2)C(=O)C(=O)N2CCCC[C@H]2C(=O)O[C@H]([C@H](C)C[C@@H]2CC[C@@H](OC(=O)C(C)(CO)CO)[C@H](OC)C2)CC(=O)[C@H](C)/C=C(\C)[C@@H](O)[C@@H](OC)C(=O)[C@H](C)C[C@H](C)\C=C/C=C/C=C/1C` , state whether its growth is at least 40%. label 1

Exam item: decide whether the reported growth for COc1c(C(NC(=O)c2ccccc2)c2sccc2C)cc(Cl)c2cccnc12 (centres undefined) is at least 40%. label 1

Evaluate `Cc1cc(C2(c3ccc(O)c(C)c3)OS(=O)(=O)c3ccccc32)ccc1O` : growth at minimum 40%? label 1

Test whether the compound `COc1ccc(-c2nocc2-c2cc(OC)c(OC)c(OC)c2)cc1` records growth of 40% or higher. label 0

Test whether the compound `N#CC[C@H](C1CCCC1)n1cc(-c2ncnc3[nH]ccc23)cn1` records growth of 40% or higher. label 1

Values compiled from PubChem BioAssay (NCI).
